- System tested: human MC4R (Homo sapiens, UniProt P32245)
- Construct: expressed in transfected cells
- Sequence (P32245 whole entry): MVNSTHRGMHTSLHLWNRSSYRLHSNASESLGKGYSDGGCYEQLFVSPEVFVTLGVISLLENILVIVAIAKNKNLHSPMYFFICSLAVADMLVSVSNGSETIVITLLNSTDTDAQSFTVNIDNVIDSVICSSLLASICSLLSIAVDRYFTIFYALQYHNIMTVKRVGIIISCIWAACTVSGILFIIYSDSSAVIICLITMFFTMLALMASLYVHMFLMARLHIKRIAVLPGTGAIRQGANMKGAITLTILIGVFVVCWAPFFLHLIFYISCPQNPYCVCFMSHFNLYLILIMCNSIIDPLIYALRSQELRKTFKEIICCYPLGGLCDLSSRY
- Experiment summary: 125NDP-α-MSH competitive binding to membranes of BHK cells expressing human MC4 receptor (filtration assay)
- Measurement conditions: human MC4R, BHK cell membranes, 125NDP-α-MSH radioligand; read-out: MC4R binding Ki
pKi: −log10 of the molar value. Starred links: 1 amine or outer side, 2 acyl side, 3 side chain; linkers in the order of their positions; H or OH if unused. Positions of bridges follow the written chain, without caps; N, C: chain ends. Non-standard residues stand in square brackets, D forms with d. Residues, ends and D or L forms follow the SMILES beside them. Hyp = O=C(O)[C@@H]1C[C@@H](O)CN1; Pen = CC(C)(S)[C@H](N)C(=O)O; CH2 = C([*:1])[*:2]
Reported pKi values for the following compounds.

| Compound | pKi |
| --- | --- |
| N=C(N)NCCC[C@@H]1NC(=O)[C@@H](Cc2ccccc2)NC(=O)[C@H](Cc2c[nH]cn2)NC(=O)[C@H]2CCCN2C(=O)[C@@H]2CSSC[C@H](NC(=O)[C@H](Cc3c[nH]c4ccccc34)NC1=O)C(=O)N1CCC[C@@H]1C(=O)N[C@@H](Cc1c[nH]cn1)C(=O)N[C@H](Cc1ccccc1)C(=O)N[C@@H](CCCNC(=N)N)C(=O)N[C@@H](Cc1c[nH]c3ccccc13)C(=O)N2 [Chem. 33] (cyclo(C[dP]H[dF]RWC[dP]H[dF]RW); disulfide 1-7) | 7.56 |
| N=C(N)NCCC[C@@H]1NC(=O)[C@@H](Cc2ccccc2)NC(=O)[C@@H]2C[C@@H](O)CN2C(=O)[C@@H]2CSCSC[C@H](NC(=O)[C@H](Cc3c[nH]c4ccccc34)NC1=O)C(=O)N1C[C@H](O)C[C@H]1C(=O)N[C@H](Cc1ccccc1)C(=O)N[C@@H](CCCNC(=N)N)C(=O)N[C@@H](Cc1c[nH]c3ccccc13)C(=O)N2 [Chem. 26] (cyclo(C[Hyp][dF]RWC[Hyp][dF]RW); linker 1-6 via CH2) | 9.36 |
| C[C@@H]1NC(=O)[C@H]2NC(=O)[C@H](Cc3c[nH]c4ccccc34)NC(=O)[C@H](Cc3c[nH]cn3)NC(=O)[C@@H](Cc3ccccc3)NC(=O)[C@H](Cc3c[nH]cn3)NC(=O)[C@@H]3CCCN3C(=O)[C@H](CSSC2(C)C)NC(=O)[C@H](CCCNC(=N)N)NC(=O)[C@H](CCCCN)NC(=O)[C@H](CCCCN)NC(=O)[C@H](CCCCN)NC1=O [Chem. 93] (cyclo(AKKKRCPH[dF]HW[Pen]); disulfide 6-12) | 10.52 |
